All figures here come from the kinase profiling compilation of Christmann-Franck et al. (2016).

- System: MAP2K6 (human), P52564 [S207E/T211E]
- Sequence (P52564 whole entry S207E/T211E, looked up): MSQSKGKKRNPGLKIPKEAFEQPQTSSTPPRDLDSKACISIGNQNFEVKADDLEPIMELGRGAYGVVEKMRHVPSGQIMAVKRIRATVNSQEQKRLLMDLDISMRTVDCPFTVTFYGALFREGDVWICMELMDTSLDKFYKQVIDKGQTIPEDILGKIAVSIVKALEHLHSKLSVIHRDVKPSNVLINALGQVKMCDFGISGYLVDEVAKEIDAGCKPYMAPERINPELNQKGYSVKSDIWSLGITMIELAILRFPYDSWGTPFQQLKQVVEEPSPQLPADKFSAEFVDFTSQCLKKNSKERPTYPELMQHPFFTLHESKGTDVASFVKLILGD
- test details: radiometric filter-binding kinase assay, Kinase HotSpot
- run conditions: compound 0.5 µM; ATP 10 µM
Would you kindly list residual activity for each of these compounds?
Output spec: scalar in %, unitless text.

**Q:** Entry "O=c1[nH]c2ccccc2n1C1CCN(Cc2ccc(-c3nc4cc5[nH]cnc5cc4nc3-c3ccccc3)cc2)CC1" : reported residual activity = ?
**A:** 101

**Q:** Entry "c1ccc(-c2cnc(Nc3ccc(OCCN4CCCC4)cc3)s2)cc1" : reported residual activity = ?
**A:** 93.6

**Q:** Entry "O=c1c(-c2ccc(F)cc2)c(-c2ccncc2)[nH]n1-c1ccc(Cl)cc1" : reported residual activity = ?
**A:** 79.4

**Q:** Entry "CCC(=O)Nc1ccc2ncnc(Nc3cccc(Br)c3)c2c1" : reported residual activity = ?
**A:** 94.5

**Q:** Entry "N#Cc1c(NC(=O)c2cccc3ccccc23)sc2c1CCCC2" : reported residual activity = ?
**A:** 98.1

**Q:** Entry "Nc1cccc(-c2cc3c(Oc4cccc(O)c4)ncnc3[nH]2)c1" : reported residual activity = ?
**A:** 90.1

**Q:** Entry "CCCCc1c(-c2ccc(O)cc2)[nH]c2nccnc12" : reported residual activity = ?
**A:** 100

**Q:** Entry "Nc1nnc2[nH]c3ccccc3nc1-2" : reported residual activity = ?
**A:** 100

**Q:** Entry "Nc1n[nH]c2nnc(-c3c(-c4ccccc4)nn4ccccc34)cc12" : reported residual activity = ?
**A:** 90.9

**Q:** Entry "Nc1nccc(-c2c(-c3ccc(F)cc3)ncn2C2CCNCC2)n1" : reported residual activity = ?
**A:** 106

**Q:** Entry CSc1nc(-c2ccc(F)cc2)c(-c2ccnc(NC(C)c3ccccc3)c2)[nH]1 (stereo not drawn) : reported residual activity = ?
**A:** 80.5

**Q:** Entry "NC(=O)c1ccc(N(C(N)=O)c2c(F)cccc2F)nc1-c1ccc(F)cc1F" : reported residual activity = ?
**A:** 96.5

**Q:** Entry CS(=O)c1ccc(-c2nc(-c3ccc(F)cc3)c(-c3ccncc3)[nH]2)cc1 (stereo not drawn) : reported residual activity = ?
**A:** 102

**Q:** Entry "O=C1Nc2ccccc2/C1=C1\Nc2ccccc2\C1=N/O" : reported residual activity = ?
**A:** 83.5

**Q:** Entry "O=C1Nc2ccc(Br)cc2/C1=C\c1cc2c([nH]1)CCCC2" : reported residual activity = ?
**A:** 110

**Q:** Entry "O=C1c2ccccc2-c2nc3nnnn3nc21" : reported residual activity = ?
**A:** 85.7

**Q:** Entry "CCc1nc(-c2ccc(OC)cc2)[nH]c1-c1ccncc1" : reported residual activity = ?
**A:** 110

**Q:** Entry "CC(=O)c1ccc(N2CCOCC2)cc1O" : reported residual activity = ?
**A:** 94.2

**Q:** Entry O=C1Nc2ccccc2/C1=C1/Nc2ccccc2/C1=N\OCCC(O)CO (stereo not drawn) : reported residual activity = ?
**A:** 79.7

**Q:** Entry "Cc1cc(Nc2nc(-c3ccccc3)nc3ccccc23)n[nH]1" : reported residual activity = ?
**A:** 93.2

**Q:** Entry "COc1cc2c(Nc3ccc(Br)cc3F)ncnc2cc1OCC1CCN(C)CC1" : reported residual activity = ?
**A:** 96.2

**Q:** Entry "O=C1NC(=O)c2cc(Nc3ccc(F)cc3)c(Nc3ccc(F)cc3)cc21" : reported residual activity = ?
**A:** 110

**Q:** Entry "C#Cc1cccc(Nc2ncnc3cc(OCCOC)c(OCCOC)cc23)c1" : reported residual activity = ?
**A:** 94.2
